Below, each of the molecules is paired with its reported inhibition value.
systemUnderTest: MAP kinase-activated protein kinase 5 (Homo sapiens)
assaySetup: at 1 µM
Number in %, nothing else.

These recorded examples may help you get a feel for the data.
[[record]]
molecule = "CN1CCC(C(=O)Nc2n[nH]c3nnc(-c4ccccc4)cc23)CC1"
observedvalue = 3.73

[[record]]
molecule = "O=C1NC(=O)C(c2cccc(Cl)c2)=C1Nc1ccc(O)c(Cl)c1"
observedvalue = -0.79

[[record]]
molecule = "COc1ccc(-c2coc3ncnc(N)c23)cc1"
observedvalue = 0.22

[[record]]
molecule = "NS(=O)(=O)c1cccc(-c2ccc3c(NC(=O)C4CC4)n[nH]c3c2)c1"
observedvalue = 0.65

[[record]]
molecule = "CNC(=O)c1cncc(/C=C/c2c(Cl)cccc2Cl)c1"
observedvalue = 1.46


**Query** Request - read-out inhibition | tested on MAP kinase-activated protein kinase 5 (Homo sapiens) | molecule CCn1c(-c2nonc2N)nc2cncc(C(=O)N3CC[C@H](N)C3)c21
**Result** 2.26

**Query** Request - read-out inhibition | tested on MAP kinase-activated protein kinase 5 (Homo sapiens) | molecule CCn1c(-c2nonc2N)nc2c(C#CC(C)(C)O)nc(CN3CCCC3)cc21
**Result** -1.46

**Query** Request - read-out inhibition | tested on MAP kinase-activated protein kinase 5 (Homo sapiens) | molecule N#Cc1c(NC(=O)c2cccc3ccccc23)sc2c1CCCC2
**Result** 0.28

**Query** Request - read-out inhibition | tested on MAP kinase-activated protein kinase 5 (Homo sapiens) | molecule COc1cc2c(cc1Nc1nc(N3CCc4ccccc43)c3cc[nH]c3n1)N(C(=O)CN(C)C)CC2
**Result** -1.65

**Query** Request - read-out inhibition | tested on MAP kinase-activated protein kinase 5 (Homo sapiens) | molecule Cc1nn(C)c2cc(N(C)c3ccnc(Nc4cccc(S(N)(=O)=O)c4)n3)ccc12
**Result** 1.23

**Query** Request - read-out inhibition | tested on MAP kinase-activated protein kinase 5 (Homo sapiens) | molecule COc1ccc(-c2ccncc2)cc1C(N)=O
**Result** 1.1

**Query** Request - read-out inhibition | tested on MAP kinase-activated protein kinase 5 (Homo sapiens) | molecule CCCN1CCC(Oc2cc(Nc3nc(Nc4cccc(F)c4C(N)=O)c4cc[nH]c4n3)c(OC)cc2Cl)CC1
**Result** -0.07

**Query** Request - read-out inhibition | tested on MAP kinase-activated protein kinase 5 (Homo sapiens) | molecule NC(=O)c1ccc(-c2nc(-c3ccccn3)c(-c3ccc4c(c3)OCO4)[nH]2)cc1
**Result** 1.22

**Query** Request - read-out inhibition | tested on MAP kinase-activated protein kinase 5 (Homo sapiens) | molecule Nc1ncnc2occ(-c3ccc(NC(=O)Nc4cccc(C(F)(F)F)c4)cc3)c12
**Result** 1.36

**Query** Request - read-out inhibition | tested on MAP kinase-activated protein kinase 5 (Homo sapiens) | molecule CC1=C(C(=O)Nc2ccc3[nH]ncc3c2)C(c2ccc(F)cc2)NC(=O)N1 (stereo not given)
**Result** 0.76

**Query** Request - read-out inhibition | tested on MAP kinase-activated protein kinase 5 (Homo sapiens) | molecule COc1cc(C)c(NC(=O)CN(C)C)cc1Nc1nc(Nc2cccc(F)c2C(N)=O)c2cc[nH]c2n1;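 further: mean inhibition of PRAK measured in the GSK PKIS screen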
**Result** 1.56
